- Read-out: Plasminogen Activator Inhibitor-1 (PAI1), SERPINE1 (gene 5054)
- Method notes: BSK_BF4T_PAI1: BioMAP Diversity Plus: BF4T Assay for Plasminogen Activator Inhibitor-1 (PAI1) Biomarker Activity (AID 2284273)
- Run parameters: primary human bronchial epithelial cells with fibroblasts
Active and inactive are the calls of the source. How the source made its calls: active means hit-call score of the fitted dose curve at least 0.9, where 1 is the maximum; inactive means score below 0.9.
Parameter: outcome

O=P(O)(O)OCCC(F)(F)C(F)(F)C(F)(F)C(F)(F)C(F)(F)C(F)(F)F	inactive
O=C(O)C(F)(F)C(F)(F)OC(F)(F)F	inactive
FC(F)(F)C(F)(F)C(F)(F)N(C(F)(F)C(F)(F)C(F)(F)F)C(F)(F)C(F)(F)C(F)(F)F	inactive

* * *

- Method notes: CCTE_Padilla_ZF_Score.Blood_pooling: CCTE's 144 Hour Post-fertilization zebrafish Assay Score for Blood Pooling, Padilla Lab (AID 2284415)
The source made the active and inactive calls. How the source made its calls: active means hit-call score of the fitted dose curve at least 0.9, where 1 is the maximum; inactive means score below 0.9.
Parameter: outcome

Known results for compounds:
FC(F)(F)C(F)(F)CNCC(F)(F)C(F)(F)F	inactive
C=C(C)C(=O)OCCC(F)(F)C(F)(F)C(F)(F)C(F)(F)C(F)(C(F)(F)F)C(F)(F)F	inactive
O=C(O)C(F)(F)C(F)(F)C(F)(F)C(F)(F)F	inactive
O=C(O)C=C(C(F)(F)F)C(F)(F)F	inactive
FC(F)(F)C(F)(F)C(F)(F)C(F)(F)C(F)(F)C(F)(F)C(F)(F)C(F)(F)CCS	inactive

// recorded outcome for "O=S(=O)(OCCOC(F)(F)F)C(F)(F)F" : inactive

* * *

- Method notes: CCTE_Padilla_ZF_Score.Craniofacial: CCTE's 144 Hour Post-fertilization zebrafish Assay Score for Craniofacial Malformation, Padilla Lab (AID 2284405)
Active and inactive are the calls of the source. How the source made its calls: active means hit-call score of the fitted dose curve at least 0.9, where 1 is the maximum; inactive means score below 0.9.
Allowed answers: T = active, F = inactive

Input line: Please share the test call associated with "FC(F)(F)C(F)(F)C(F)(F)C(F)(F)C(F)(F)C(F)(F)C(F)(F)I" .
Output line: F

Input line: Record request — test call for "OCC(F)(F)C(F)(F)C(F)(F)C(F)(F)C(F)(F)C(F)(F)F"
Output line: F

Input line: Please state the recorded outcome for this molecule: "FC(F)(F)C(F)(F)CNCC(F)(F)C(F)(F)F"
Output line: F

Input line: Which result was noted for this molecule in the test: "OCC(F)(F)C(F)(F)C(F)(F)C(F)(F)C(F)(F)C(F)F"
Output line: F

Input line: I would be grateful if you could indicate the recorded call for "FC(F)(F)C(F)(F)C(F)(F)C(F)(F)C(F)(F)C(F)(F)CCS" .
Output line: F

Input line: Fill in: this test's call for "O=C(O)C=C(C(F)(F)F)C(F)(F)F" is ___
Output line: F

Input line: So what was the verdict on "OCC(F)(F)C(F)(F)C(F)(F)C(F)F" in this test?
Output line: F

Input line: What is the recorded call for this molecule in the test? "CC(C)(C)C(=O)CC(=O)C(F)(F)C(F)(F)C(F)(F)F"
Output line: T

Input line: Please share the test call associated with "O=C(Cl)C(F)(F)C(F)(F)C(F)(F)C(F)(F)C(F)(F)C(F)(F)C(F)(F)C(F)(F)F" .
Output line: F

Input line: Look up the recorded call for "O=C(O)C(F)(F)C(F)(F)F" in this test.
Output line: F

Input line: For "C=C(C)C(=O)OCCC(F)(F)C(F)(F)C(F)(F)C(F)(F)C(F)(C(F)(F)F)C(F)(F)F" , which call appears in the assay record?
Output line: F

Input line: Just curious, what result did O=C(O)C(F)(OC(F)(F)C(F)(OC(F)(F)C(F)(F)C(F)(F)F)C(F)(F)F)C(F)(F)F (centres undefined) get here?
Output line: F

Input line: For "C=CC(=O)OCC(F)(F)C(F)(F)C(F)(F)C(F)(F)COC(=O)C=C" , which call appears in the assay record?
Output line: F

Input line: Per the assay record, what outcome was assigned to "FC(F)(F)C(F)(F)C(F)(F)C(F)(F)C(F)(F)C(F)(F)C(F)(F)C(F)(F)CCS" ?
Output line: F

Input line: Please let me know the test result on file for "C=CC(F)(F)C(F)(F)C(F)(F)C(F)(F)C(F)(F)C(F)(F)C(F)(F)C(F)(F)F" .
Output line: F

Input line: What was the test verdict on "FC(F)(I)C(F)(F)C(F)(F)C(F)(F)I" ?
Output line: T

Input line: Dear colleague, could you share the recorded outcome for "N=C(N)C(F)(F)C(F)(F)C(F)(F)C(F)(F)C(F)(F)C(F)(F)C(F)(F)F" when you have a moment?
Output line: F

Input line: # lookup: test call for "OCCCC(F)(F)C(F)(F)C(F)(F)C(F)(F)C(F)(F)C(F)(F)C(F)(F)F"
Output line: F

Input line: Record request — test call for "O=C(O)C(F)(F)C(F)(F)C(F)(F)C(F)(F)C(F)(F)C(F)(F)C(F)(F)C(F)(F)Cl"
Output line: T

* * *

- Measurement target: Transcriptional activator Myb (Homo sapiens) (UniProt P10242)
- Sequence (P10242 whole entry, looked up): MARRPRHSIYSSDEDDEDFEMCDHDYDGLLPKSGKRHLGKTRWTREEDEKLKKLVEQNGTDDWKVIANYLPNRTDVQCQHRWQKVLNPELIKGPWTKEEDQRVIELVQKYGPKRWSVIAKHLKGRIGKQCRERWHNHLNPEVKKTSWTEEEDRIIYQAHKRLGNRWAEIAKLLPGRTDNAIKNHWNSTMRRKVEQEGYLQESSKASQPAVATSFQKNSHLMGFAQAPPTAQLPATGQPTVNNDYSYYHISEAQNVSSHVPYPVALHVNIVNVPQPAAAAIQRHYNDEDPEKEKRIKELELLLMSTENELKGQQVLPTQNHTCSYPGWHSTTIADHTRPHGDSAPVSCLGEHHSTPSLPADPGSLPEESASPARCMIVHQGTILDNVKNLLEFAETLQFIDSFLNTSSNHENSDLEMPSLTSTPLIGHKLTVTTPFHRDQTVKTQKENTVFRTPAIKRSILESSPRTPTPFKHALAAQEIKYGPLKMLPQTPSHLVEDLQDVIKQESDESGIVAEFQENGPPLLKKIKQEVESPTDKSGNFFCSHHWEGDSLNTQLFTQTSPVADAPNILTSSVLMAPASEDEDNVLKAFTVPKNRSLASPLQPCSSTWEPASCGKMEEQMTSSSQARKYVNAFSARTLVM
- Method notes: ATG_Myb_CIS: Attagene CIS-FACTORIAL HepG2 Assay for human Myeloblastosis (Myb) Proto-Oncogene Transcription Factor (AID 2282986)
- Run parameters: HepG2 Attagene CIS-FACTORIAL Myb reporter transcription; actives raise or lower the signal
Calls of active or inactive are those of the source. The calls were made as follows: active = hit-call score of the fitted dose curve at least 0.9, where 1 is the maximum; inactive = score below 0.9.
Entry note: the call must match one of 1 (active), 0 (inactive)

Input line: Could you kindly confirm the outcome this assay logged for CCCCCCC(C)OC(=O)CCCCC(=O)OC(C)CCCCCC (stereo not drawn) ?
Output line: 0

Input line: // param item: "Cc1ccc(S(=O)(=O)OCC(F)(F)C(F)(F)C(F)(F)C(F)(F)C(F)(F)C(F)F)cc1" ; yields the recorded call
Output line: 0

Input line: Which outcome did this test record for the compound "CCCCCCCCCCCCCCCC[N+](C)(C)Cc1ccccc1" ?
Output line: 0

Input line: Record lookup: outcome of this test for "FC(F)(F)C(F)(F)C(F)(F)C(F)(F)C(F)(F)C(F)(F)C(F)(F)C(F)(F)CCS" ?
Output line: 0

Input line: Just curious, what result did "CNC(=S)NC" get here?
Output line: 0

Input line: Query: recorded result category for "OCC(F)(F)C(F)(F)C(F)(F)C(F)(F)C(F)(F)C(F)F" in this test
Output line: 0

Input line: Outcome? "C=CC/C=C/C/C=C/C/C=C/C"
Output line: 0

Input line: Test call for this compound, please: "Nc1ccc(S(=O)(=O)Nc2nccs2)cc1"
Output line: 0

Input line: // return assay outcome for "O=C(O)C(F)(F)C(F)(F)C(F)(F)C(F)(F)F"
Output line: 0

Input line: How was "O=C(O)C(F)(F)C(F)(F)C(F)F" classified in this test?
Output line: 0

Input line: Given "C=CC(=O)OCC(F)(F)C(F)(F)C(F)(F)C(F)(F)C(F)(F)C(F)(F)C(F)(F)F" , state the outcome it received in this test.
Output line: 0

Input line: What is the recorded call for this compound in the test? "O=S(=O)(O)c1ccc2ccccc2c1"
Output line: 0

Input line: What outcome does the record of this test show for "FC(F)(F)C(F)(F)C(F)(F)C(F)(F)C(F)(F)C(F)(F)C(F)(F)Br" ?
Output line: 0

Input line: For "O=C(O)C(F)(F)C(F)(F)C(F)(F)F" , which call appears in the assay record?
Output line: 0

Input line: Query: recorded result category for "CCN(Cc1cccc(S(=O)(=O)O)c1)c1ccc(C(=C2C=CC(=[N+](CC)Cc3cccc(S(=O)(=O)O)c3)C=C2)c2ccc(O)cc2S(=O)(=O)[O-])cc1" in this test
Output line: 0

Input line: For "C(=C(c1ccccc1)c1ccccc1)c1ccccc1" , what call appears in the results of this test?
Output line: 0

Input line: Name the outcome recorded for "FC(F)(F)C(F)(F)C(F)(F)C(F)(F)C(F)(F)C(F)(F)C(F)(F)I" in the assay.
Output line: 0

Input line: Test call for this compound, please: "FC(F)(F)C(F)(F)C(F)(F)CI"
Output line: 0

Input line: Short answer needed: outcome of this test for O=C(O)C(F)(OC(F)(F)C(F)(OC(F)(F)C(F)(F)C(F)(F)F)C(F)(F)F)C(F)(F)F (stereo not drawn) ?
Output line: 0

Input line: Hi, do you know how "O=P(O)(O)OCCC(F)(F)C(F)(F)C(F)(F)C(F)(F)C(F)(F)C(F)(F)F" came out in this test?
Output line: 0

Input line: So what was the verdict on "C=C(C)C(=O)OCCC(F)(F)C(F)(F)C(F)(F)C(F)(F)C(F)(C(F)(F)F)C(F)(F)F" in this test?
Output line: 0

Input line: Would you mind telling me which call this test gave "O=S(=O)(OCCOC(F)(F)F)C(F)(F)F" ?
Output line: 0

Input line: // outcome(item) with item = "c1ccc(-c2ccccc2-c2ccccc2)cc1"
Output line: 0

Input line: How was "OCC(F)(F)C(F)(F)C(F)(F)C(F)(F)C(F)(F)C(F)(F)F" classified in this test?
Output line: 0

Input line: Any idea what this test logged for "CCCCCCOC(=O)c1ccccc1O" ?
Output line: 0

Input line: How was FC1CC(F)(F)C(F)(F)C1(F)F (stereo not drawn) classified in this test?
Output line: 0

Input line: Returns: the outcome recorded for "CC/C=C\CCOC(=O)c1ccccc1" in this assay.
Output line: 0

Input line: What is the recorded call for this compound in the test? "O=C(Cl)C(F)(F)C(F)(F)C(F)(F)C(F)(F)C(F)(F)C(F)(F)C(F)(F)C(F)(F)F"
Output line: 0

Input line: State the result this test recorded for CC(CCl)OP(=O)(OC(C)CCl)OC(C)CCl (stereo not drawn) .
Output line: 0

Input line: I would be grateful if you could indicate the recorded call for "C#C[C@]1(O)CC[C@H]2[C@@H]3CCc4cc(OC)ccc4[C@H]3CC[C@@]21C" .
Output line: 0

Input line: What did this assay record as the result for "O[Si](c1ccccc1)(c1ccccc1)c1ccccc1" ?
Output line: 0

Input line: Dear colleague, could you share the recorded outcome for "c1ccc(B(c2ccccc2)c2ccccc2)cc1" when you have a moment?
Output line: 0

Input line: Test call for this compound, please: "NC(=O)C(F)(F)C(F)(F)C(F)(F)C(F)(F)F"
Output line: 0

Input line: State the result this test recorded for "CO[Si](OC)(c1ccccc1)c1ccccc1" .
Output line: 0

Input line: Which outcome was assigned to "Nc1ccc(Oc2cccc(Oc3ccc(N)cc3)c2)cc1" in this test?
Output line: 1

Input line: How was "N=C(N)C(F)(F)C(F)(F)C(F)(F)C(F)(F)C(F)(F)C(F)(F)C(F)(F)F" classified in this test?
Output line: 0

Input line: For this compound, state the assay outcome: "CCCCCCCOC(=O)c1ccccc1C(=O)OCCCCCCC"
Output line: 0

Input line: Look up the recorded call for "O=C(O)C=C(C(F)(F)F)C(F)(F)F" in this test.
Output line: 0

Hello, the source for this data is PubChem BioAssay (EPA / NIEHS), in case you need it.
